Documented Kd across a set of binders
subject-of-test: T1, hBRM-A AT-BRD (AT-hook and bromodomain of human BRM, long isoform, residues 1358-1508) (human, UniProt P51531 1358-1508, 15N-labelled)
T1 chain: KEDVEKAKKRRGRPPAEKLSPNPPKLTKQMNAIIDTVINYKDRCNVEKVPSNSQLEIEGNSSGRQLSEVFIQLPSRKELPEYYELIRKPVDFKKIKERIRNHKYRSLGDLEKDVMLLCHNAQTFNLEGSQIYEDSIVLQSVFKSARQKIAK
test-protocol: NMR
No end group written: not given here.
measured-property: Kd

[[record]]
binder = "KAARK(Ac)SAPATGG [H3(23-34)K27ac histone peptide]"
measured_property = "Kd"
reported_measurement = "> 35000 µM"

[[record]]
binder = "KSTGGK(Ac)APRKQ [H3(9-19)K14ac histone peptide]"
measured_property = "Kd"
reported_measurement = "810 µM"

